Some binders, each annotated with its measured OD450 nm.
target: T1, HSA (purchased from Sigma) (human, UniProt P02768 25-609); assay: ELISA, HSA coated 200 ng/well, VHH 1 µg/mL, anti-his detection
T1 construct: Control coat for the HSA part of hPD1-HSA; also called human serum albumin
parameter: OD450 nm (OD450 nm)

{"columns": ["binder", "measValue"],
 "data": [
  ["anti-PD-1 single-domain antibody clone 1A4, histidine-tagged, from E. coli (VHH, Alpaca VHH expressed in E. coli Rosetta (DE3) from pET32a+, purified on a Ni column; not shown: C-terminal histidine tag) VHH: QVQLVESGGGLVQPGGSLNLSCVASGNVFIIDVMAWYRQAPGKQRELVAQIINGDAKYYVDSVKGRFTISRDNTKTTLYLQMNSLKPDDTAIYYCSAEKFNPYRDSTNFWGQGTQVTVSS", 0.021],
  ["anti-PD-1 single-domain antibody clone 2D9, histidine-tagged, from E. coli (VHH, Alpaca VHH expressed in E. coli Rosetta (DE3) from pET32a+, purified on a Ni column; not shown: C-terminal histidine tag) VHH: QVQLVESGGGLVQPGGSLRLSCAASGSVFIIDVMAWYRQAPGKQRELVAQIINGDAKYYADSVKGRFTISRDNTKTTLYLQMNSLKPDDTAVYYCSAEQFNPYRDSTYFWGQGTQVTVSS", 0.019],
  ["anti-PD-1 single-domain antibody clone 1A9, histidine-tagged, from E. coli (VHH, Alpaca VHH expressed in E. coli Rosetta (DE3) from pET32a+, purified on a Ni column; not shown: C-terminal histidine tag) VHH: QVQLVESGGGLVQPGGSLNLSCVASGNVFIIDVMAWYRQAPGKQRELVAQIINGGATYYADSVKGRFTISRDDTKTTLNLQMNSLKPDDTAVYYCSAEKFNPYRDSTHFWGQGTQVTVSA", 0.035],
  ["anti-PD-1 single-domain antibody clone 1D3, histidine-tagged, from E. coli (VHH, Alpaca VHH expressed in E. coli Rosetta (DE3) from pET32a+, purified on a Ni column; not shown: C-terminal histidine tag) VHH: QVQLVESGGGLVQPGGSLNLSCVASGSVFIIDVMAWYRQAPGKQRELVAQIINGGATYYADSVKGRFTISRDDTKTTLYLQMNSLKPDDTAVYYCSAEKFNPYRDSTHFWGQGTQVTVSS", 0.029],
  ["anti-PD-1 single-domain antibody clone 2C4, histidine-tagged, from E. coli (VHH, Alpaca VHH expressed in E. coli Rosetta (DE3) from pET32a+, purified on a Ni column; not shown: C-terminal histidine tag) VHH: QVQLVESGGGLVRPGGSLRLSCAASGSVFIIDVMAWYRQAPGKQRELVAQIISGDHAYYADSVKGRFTISRDDTKTTLYLQMNSLKPDDTAVYYCSAEKFNPYRDSTYFWGQGTQVTVSS", 0.022],
  ["anti-PD-1 single-domain antibody clone 1H1, histidine-tagged, from E. coli (VHH, Alpaca VHH expressed in E. coli Rosetta (DE3) from pET32a+, purified on a Ni column; not shown: C-terminal histidine tag) VHH: QVQLVESGGGLVQPGGSLNLSCVASGSVFIIDVMAWYRQAPGKQRELVAQIINGGASYYADSVKGRFTISRDNTKTTLFLQMNSLKPADTAVYYCNAEKFNPYRDSTNFWGQGTQVTVSS", 0.031]
]}
